test: soluble on expression in E. coli; label from the status in PepcDB or PDB records
readoutType: soluble on expression in E. coli

| chainSequence | observed |
| --- | --- |
| MLSGREMSMSHINYNHLYYFWHVYKEGSVVGAAEALYLTPQTITGQIRALEERLQGKLFKRKGRGLEPSELGELVYRYADKMFTLSQEMLDIVNYRKESNLLFDVGVADALSKRLVSSVLDAAVVEDEQIHLRCFESTHEMLLEQLSQHKLDMIISDCPIDSTQQEGLFSMKIGECGVSFWCTNPLPEKPFPACLEERRLLIPGRRSMLGRKLLNWFNSQGLNVEILGEFDDAALMKAFGATHNAIFVAPSLYANDFYNDDSVVEIGRVENVMEEYHAIFAERMIQHPAVQRICNTDYSALFTPASK | not soluble |
| MADSDLPTKGRQRGVRAVELNVAARLENLALLRTLVGAIGTFEDLDFDAVADLRLAVDEVCTRLIRSALPDATLRLVVDPRKDEVVVEASAACDTHDVVAPGSFSWHVLTALADDVQTFHDGRQPDVAGSVFGITLTARRAASSR | not soluble |
| LEQVNDKRISPLRPMRLRLIPLKCKTQPKKGKLSLQSVQKIYVNPRSNGTFKRVPLAGDLFKSRMRQPERDMQKNKLHDSDWQSNM | soluble |
| MAKRLSKQQLAKAIANTLETPPQPKAGRRRNRRRQRSAVQQLQPTQAGISMAASAQGAMVRIRNPAVSSSRGGITVLTHSELSAEIGVTDSIVVSSELVMPYTVGTWLRGVAANWSKYSWLSVRYTYIPSCPSSTAGSIHMGFQYDMADTVPVSVNQLSNLRGYVSGQVWSGSAGLCFINGTRCSDTSTAISTTLDVSKLGKKWYPYKTSADYATAVGVDVNIATPLVPARLVIALLDGSSSTAVAAGRIYCTYTIQMIEPTASALNN | soluble |
| MRRVNILCSFALLFASHTSLAVTYPLPPEGSRLVGQSFTVTVPDHNTQPLETFAAQYGQGLSNMLEANPGADVFLPKSGSQLTIPQQLILPDTVRKGIVVNVAEMRLYYYPPDSNTVEVFPIGIGQAGRETPRNWVTTVERKQEAPTWTPTPNTRREYAKRGESLPAFVPAGPDNPMGLYAIYIGRLYAIHGTNANFGIGLRVSQGCIRLRNDDIKYLFDNVPVGTRVQIIDQPVKYTTEPDGSNWLEVHEPLSRNRAEYESDRKVPLPVTPSLRAFINGQEVDVNRANAALQRRSGMPVQISSGSRQMF | not soluble |

Req: Supply measured soluble on expression in E. coli of MHPRFQTAFAQLADNLQSALAPILADHHFPAMLTAEQVSTLKNTAGLDEDALAFALLPLAAACARTDLSHFNVGAIARGVSGNWYFGANMEFLGATMQQTVHAEQSAISHAWLRGEKGLAAVTVNYTPCGHCRQFMNELNSGLDLRIHLPGRAPHTLRDYLPDAFGPKDLEIKTLLMDEQDHGFTLTGDTLTQAAITAANKSHMPYSHSPSGVALECKDGRIFTGSYAENAAFNPTLPPLQGALNLLSLNGYDYADIQRAILAEKGDAALIQWDATAATLKALGCHNIDRVLLG in your reply.
Resp: not soluble

Req: Supply measured soluble on expression in E. coli of MLWMVIGMWDTSKDYRLMVAVKAVDLFRRTLESGGFRGQWKKKPALQAAGEIERILQGLTYCYMEPEDLASSPEVMEIKGKVEEIVEALGGEDWSRRFLEEAPREEREKVEENIARVRFFLNTLGNLDRRLMLGKISDPVIGVDIITGEVMSVGNHPVADKLHVCNVNAGGRSIKVVTNDLDVRENDHVAVALLPPQNFMGVTSEGMFLGVEGVLRDVDGEPGEMPRGIPLEALNETRNLVEEFLKS in your reply.
Resp: soluble

Req: Supply measured soluble on expression in E. coli of METYLEIETLIKRIFNSFRHEVEAVLDKRLSGSEYRVLSLISSGLTKTSDLAKTLDVSASHITAITDTLVEEKLITRHRSEVDRRIIELKLTSNAEEFVKEIDKKKKEMIVKRFAVFSEYEQAEFRKLLKKLADGSQSNK in your reply.
Resp: not soluble

Req: Supply measured soluble on expression in E. coli of MGSDKIHHHHHHENLYFQGMTQFKLIGFDLDGTLVNSLPDLALSINSALKDVNLPQASENLVMTWIGNGADVLSQRAVDWACKQAEKELTEDEFKYFKRQFGFYYGENLCNISRLYPNVKETLEALKAQGYILAVVTNKPTKHVQPILTAFGIDHLFSEMLGGQSLPEIKPHPAPFYYLCGKFGLYPKQILFVGDSQNDIFAAHSAGCAVVGLTYGYNYNIPIAQSKPDWIFDDFADILKITQ in your reply.
Resp: soluble

Req: Supply measured soluble on expression in E. coli of DKSRIAHMIDEWDGKEIIYPDDLVFTTMGEDTVKWFLKDSRYTIVTYADSIGCMGCKLKLPVWKDFISYLDSVSDHTVKVIFILHPRDKKEMVHLLEYNDFSYPVCLDIKGSFDKINKIPSNLAFQTFLLDNRNKVIAIGNPIHNPNVRTLYLNLILSDSICKS in your reply.
Resp: not soluble

Req: Supply measured soluble on expression in E. coli of MAHHHHHHMRKKKTKDVPTVFIECALEGEGEKLCVRWLFGMGVGGKPYDADEYDATIVWVPSDYAFHGDKFTSPLRPIPTKNPVAVVRIPVYLCRKKALRSCGGNPMLLSVYGSYGECCDVVFENERLSLLDRGFVWGFAAVCGGSELGAAWHKAGCGLQRATSVNDFVSVSFYVQETGWCAAGQIVTHGSSAGVFVATAAMCVAPSLPLAVIALVPCVDCLTTLMDDSLPLTVSNWEEFGNPRDDADAYRLLRAMLPMDNIPSVGVALPHMLLLTAWHDTRVGFWESLAFTARLRAREMEEGAATR in your reply.
Resp: soluble

Req: Supply measured soluble on expression in E. coli of MGHHHHHHSHMGNCCWTQCFGLLRKEAGRLQRVGGGGGSKYFRTCSRGEHLTIEFENLVESDEGESPGSSHRPLTEEEIVDLRERHYDSIAEKQKDLDKKIQKEQERQRIVQQYHPSNNGEYQSSGPEDDFESCLRNMKSQYEVFRSSRLSSDATVLTPNTESSCDLMTKTKSTSGNDDSTSLDLEWEDEEGMNRMLPMRERSKTEEDILRAALKYSNKETGSNPTSASDDSNGLEWENDFVSAEMDDNGNSEYSGFVNPVLELSDSGIRHSDTDQQTR in your reply.
Resp: soluble

----------
experiment: soluble on expression in E. coli; label from the status in PepcDB or PDB records

| chainSequence | soluble on expression in E. coli |
| --- | --- |
| MGSDKIHHHHHHMSARYLDPKKRHEFVFLFDVRDGNPNGDPDAGNLPRVDPETMHGLVTDVALKRKIRDYIALTREGKPRFAIFVQSRVALNRLILEGFQEAGIEPVSLQLAEEQMANESLLEHLDGLAEAGFSREGGTLYYSGQATTEKEIAKLLMGEEEAVAPFKKELEKLAKELAKAVKGRKITEEDRERAQAKLLERFFDIRMFGAVLSTGLNAGQVRGPVQLTFARSLDPIAPLEVSITRVAITREEDRARKETEMGRKPLVPYGLYRAHGFFNPFLAAKTGVQPEDLEALWDALQHLFELDRSAARGEMTVRGLAVFSHEDAKGNAPAHRLFGLIRVERREGVEAPRSFADYRVRAPKEGSLEAHGFPGVHLAWLVRPEGLEDLPPHVG | not soluble |
| MGSDKIHHHHHHMKFMKSLEPLNNHDETAAGDAMRGPSGGGNSASILNEAENILRDYYGGAIESLFIERLVVGVFFTGVKLSNGCGGVAYTPPETIRNASRRILRGSPSAIRGKSADVVISGKIPSPFADVIRLAAINALSVPFFQDGRYDFEKSDDLSDVSHLFTGRRVCMVGAIVPLLKRFKKMGVSEIKVIDRKKDSQIEVELACGEFLSPEQTAETIAQCETAVFTGAAVANGTIEHLLRLVPKEAAVAVVGPTAGFIPDPLFRRNVALVGTAMVTDIAAALDIIAEGGGAYPLFGRCVKKINILNRKRIEQLKPGSKTA | not soluble |
| MNKLVCSTFAILAIIAISQVQSAVLPVSSKEVALITSSASTTSSSETSIDTLGSSRVKRQGGCGCCGCGCGCCGCGGGGGGGCGCCCCRPKCCCCCRRCCTCCRTCCCTRCCTCCRPCCCGCGCGCGCCGCGGGGRKRRSLQNLRIALANKIEGIAKVVKGSAVEASVMNALAPVNDATVEEKKDVIN | not soluble |

----------
assay: soluble on expression in E. coli; label from the status in PepcDB or PDB records

| chainSequence | soluble on expression in E. coli |
| --- | --- |
| MSLAKQPIDLLIQPKWRIIDQSSLGPYFDAKQSFAIDDTLCASVGKGLSPATARSWVHHDTIVLGIQDTRLPYLQEGISLLEEAGYQAIVRNSGGLAVVLDSGVLNVSLIFQDKKNGIDIDRGYEAMFELVKRMLSSYDAAIEAYEIKGSYCPGSFDLSIGGRKFAGISQRRLRGGVAVQIYLCADQSGSGRAELIKRFYDTALKDMRGKTKAVYPDIRPETMASLSELLNEDISVQDLMLLLLTQLKELGGEIYQGPLTPAEEEVYEKNLVRMIERNEKVFGEGHHHHHH | soluble |
| MDMKRRIHLELRNRTPAAVRELVLDNCKAMDGKIEGLTDEFVNLEFLSLISVGLFSVSDLPKLPKLKKLELSENRIFGGLDRLAEELPSLTHLNLSGNNLKDISTLEPLKRLDCLKSLDLFGCEVTNRSDYRETVFRLLPQLSYLDGYDREDQEAPDSDVEVDSVEEAPDSDGEVDGVDKEEEDEEGEDEEEEEDEDGEEEEDEDEEDEDEDEDVEGEDDEDEVSGEEEEFGHDGEVDEDEEDEDEDEDEEEEESGKGEKRKRETDDEGEDD | soluble |
